- ASSAY TARGET: UniProt:P06493
- Sequence (P06493 whole entry): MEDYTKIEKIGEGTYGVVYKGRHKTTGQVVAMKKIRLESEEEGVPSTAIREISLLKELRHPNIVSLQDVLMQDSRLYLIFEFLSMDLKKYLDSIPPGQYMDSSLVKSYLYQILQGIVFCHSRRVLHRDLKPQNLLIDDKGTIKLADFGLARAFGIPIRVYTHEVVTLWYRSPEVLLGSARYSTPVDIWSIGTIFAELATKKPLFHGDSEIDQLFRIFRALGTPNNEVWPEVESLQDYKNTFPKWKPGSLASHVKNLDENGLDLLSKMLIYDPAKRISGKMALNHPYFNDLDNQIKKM
MEASURED METRIC: IC50 (µM)
Kindly provide the numeric value in µM only, without the unit symbol.

Note to self: IC50 recorded for O=C(Cn1c2ccc(Br)cc2c2nc3ccccc3nc21)NNC(=S)NC1CCCCC1 was 70

###

- ASSAY PROCEDURE: Growth inhibition of human NCI60 cells
- Format: functional
Quick list: GI50 per entry.

// below: answered molecules
> print(dat)
                                     smiles  measured.metric  data.value
1  CC(=O)O.COc1ccc2c(c1)cn1c3ccc(O)cc3[nH]c(=N)c21             GI50   < 8.32 µM
2  CC(=O)O.COc1cc2cn3c4ccc(O)cc4[nH]c(=N)c3c2cc1OC             GI50   < 3.31 µM

Note to self: GI50 recorded for CC(=O)O.COc1ccc2c(c1)[nH]c(=N)c1c3cc(OC)c(OC)cc3cn21 was < 9.55 µM

Note to self: GI50 recorded for N=c1[nH]c2cc(O)ccc2n2cc3c(F)cccc3c12 was 31.6 µM

Note to self: GI50 recorded for Cc1cc2cn3c4ccc(O)cc4[nH]c(=N)c3c2cc1C was < 1.45 µM

Note to self: GI50 recorded for CC(=O)O.N=c1[nH]c2cc(O)ccc2n2cc3c(F)cccc3c12 was 6.31 µM

Note to self: GI50 recorded for CC(=O)O.Cc1cc2cn3c4ccc(O)cc4[nH]c(=N)c3c2cc1C was < 5.25 µM
